Just for reference, ChEMBL document CHEMBL5303709 is where these values come from.

# Tested target: Replicase polyprotein 1ab (Severe acute respiratory syndrome coronavirus 2)
# Method summary: Inhibition of SARS-CoV-2 3CL-Pro proteolytic cleavage of a dual-labeled substrate by FRET.
# Format: functional
# Design: assay stage
Outcome (select one): Y = active, N = inactive

Molecule: [O-][n+]1ccccc1S
Category: Y

Molecule: S=C=Nc1cccc(NC(=S)NCCCCNC(=S)Nc2cccc(N=C=S)c2)c1
Category: N

Molecule: COc1ccc2[nH]c(S)nc2c1
Category: N

Molecule: Cc1ccc(-n2sc3ccccc3c2=O)cc1
Category: Y

Molecule: O=C(c1ccc(Cl)cc1)c1cc([N+](=O)[O-])ccc1N1CCOCC1
Category: N

Molecule: CCOC(=O)c1c(N)sc(-c2ccccc2)c1C
Category: Y

Molecule: O=[N+]([O-])c1ccc(Sc2cccc[n+]2[O-])c2nonc12
Category: Y

Molecule: O=C(/C=C/c1ccc2ccccc2n1)c1ccncc1
Category: N

Molecule: Sc1nnc(-c2ccccc2Cl)o1
Category: N

Molecule: CCOc1cc(C(Nc2cc(C)ccn2)c2ccc3cccnc3c2O)ccc1OC (configuration not stated)
Category: Y

Name the outcome recorded for CC(Cc1ccc(O)c(O)c1)C(C)Cc1ccc(O)c(O)c1 (configuration not stated) in the assay.
N

Then this molecule: CN1CCN(C(=O)c2ccc(-c3ccc4c(C=O)c(O)ccc4c3)s2)CC1
Y

---

# Tested target: Replicase polyprotein 1ab (Severe acute respiratory syndrome coronavirus 2) (UniProt P0DTD1)
# Method summary: Inhibition of SARS-CoV-2 3CL-Pro proteolytic cleavage of a dual-labeled substrate by FRET.
# Format: functional
# Set-up: assay stage
Outcome (select one): active, inactive

Item smiles: COc1cc(N(C)C)cc(CN(C)CCc2ccc([N+](=O)[O-])cc2)c1O
Category: inactive

Item smiles: O=C1C(Cl)=C(Cl)C(=O)C(Cl)=C1Cl
Category: active

Item smiles: Cc1c(-c2ccc(N3CCc4cccc(C(=O)Nc5nc6ccccc6s5)c4C3)nc2C(=O)O)cnn1CC12CC3CC(CC(C3)C1)C2
Category: inactive

Item smiles: O=C(CCl)c1ccccc1
Category: active

Name the outcome recorded for CCN(CC)C(=S)S in the assay.
inactive

Then this compound: Cc1cc(-c2ccc(/C=C3/S/C(=N\c4ccc(Cl)c(C(=O)O)c4)NC3=O)o2)c([N+](=O)[O-])cc1C
inactive

---

# Tested target: Replicase polyprotein 1ab (Severe acute respiratory syndrome coronavirus 2)
# Method summary: Inhibition of SARS-CoV-2 3CL-Pro proteolytic cleavage of a dual-labeled substrate by FRET.
# Format: functional
# Parameters: assay stage
Outcome (select one): active, inactive

Record excerpt, results attached:
Molecule: Cc1ccc(S(=O)(=O)N[C@@H](Cc2ccccc2)C(=O)CCl)cc1
Tested target: Replicase polyprotein 1ab (Severe acute respiratory syndrome coronavirus 2)
Category: active
--
Molecule: O=C(Nc1ccccc1)Nc1ccc(-c2ccc(C(=O)[C@@H]3CCC[C@H]3C(=O)O)cc2)cc1
Tested target: Replicase polyprotein 1ab (Severe acute respiratory syndrome coronavirus 2)
Category: inactive
--
Molecule: O=C(c1cccs1)c1no[n+]([O-])c1C(=O)c1cccs1
Tested target: Replicase polyprotein 1ab (Severe acute respiratory syndrome coronavirus 2)
Category: inactive
--
Molecule: S=C=NCc1ccccc1
Tested target: Replicase polyprotein 1ab (Severe acute respiratory syndrome coronavirus 2)
Category: inactive
--
Molecule: Nc1ccc(O)c2ncccc12
Tested target: Replicase polyprotein 1ab (Severe acute respiratory syndrome coronavirus 2)
Category: active
--
Molecule: COc1ccc2[nH]c([S+]([O-])Cc3ncc(C)c(OC)c3C)nc2c1 (stereo not given)
Tested target: Replicase polyprotein 1ab (Severe acute respiratory syndrome coronavirus 2)
Category: inactive

Name the outcome recorded for CN(C)S(=O)(=O)c1cccc(-n2sc3ccccc3c2=O)c1 in the assay.
active

Then this molecule: Sc1nnnn1-c1ccccc1
active

Then this molecule: Oc1cc2c(cc1C(c1ccc(C(F)(F)F)cc1)N1CCOCC1)OCO2 (stereo not given)
active

Then this molecule: Cc1ccc(C)c(-n2sc3cc(F)ccc3c2=O)c1
active
